The origin of these recorded values is patent US4994473A.

system: Tetranychus urticae; test: Two-spotted mite acaricidal test on pinto bean plants; type: in vivo, two-spotted mite Tetranychus urticae (Koch); settings: adults, percent concentration in solution, 5-7 days
Reported property: LC50 2-SM A

Examples from the recorded data:
- C=C(C)C(=Nc1ccc(Cl)nc1)OCc1ccc(F)c(Oc2ccccc2)c1: > 0.05%
- CC(C)C(=Nc1ccc(OCC(F)(F)F)nc1)OCc1cccc(Oc2ccc(F)cc2)c1: 0.006%
- Cc1nc2ccc(N=C(OCc3cccc(Oc4ccccc4)c3)C(C)C)cc2o1: > 0.05%
- CC(C)C(=Nc1ccc(Cl)nc1)NCc1cccc(Oc2ccccc2)c1: > 0.05%

Query: Give a short answer stating reported LC50 2-SM A for CC(C)(Cl)C(=Nc1ccc(Br)nc1)OCc1cccc(Oc2ccccc2)c1 .
Response: > 0.05%

Query: Answer with the recorded LC50 2-SM A for the compound listed here: CC(C)C(=Nc1ccc(Cl)nc1)OCc1ccc(F)c(Oc2ccc(F)cc2)c1
Response: > 0.05%

Query: Fill in reported LC50 2-SM A for this entry: CC(C)C(=Nc1ccc2nc(C(C)C)oc2c1)OCc1cccc(Oc2ccccc2)c1
Response: > 0.05%
